Multiple publications report pIC50 for Dual specificity protein kinase CLK2 (Homo sapiens, UniProt P49760); what follows is a combined list.
pIC50: −log10 of the molar value.

Structure: Cc1nn(C)c2c1/C=C/c1n[nH]c3ccc(cc13)-c1c(C)nn(C)c1OCCN(C)C2
pIC50: 7.32
//
Structure: Nc1cnc2c(-c3c(F)cccc3F)cccn2c1=O
pIC50: 4.60
//
Structure: CSc1nc2ccc3nc(NC(=O)c4ccc(S(=O)(=O)N5CCOCC5)cc4)sc3c2s1
pIC50: 6.90
//
Structure: Cc1nc2ccc3sc(NC(=O)c4ccc5ncsc5c4)nc3c2s1
pIC50: 7.17
//
Structure: O=C(Nc1ccc2[nH]nc(-c3ccncc3)c2c1)[C@H]1CCN(CC(=O)N2CCN(c3ccc(-c4ncccn4)cc3)CC2)C1
pIC50: 6.98
